Entry source: ChEMBL document CHEMBL3875189

TARGET SYSTEM: Sphingosine 1-phosphate receptor 5 (Homo sapiens)
Sequence (Q9H228 whole entry): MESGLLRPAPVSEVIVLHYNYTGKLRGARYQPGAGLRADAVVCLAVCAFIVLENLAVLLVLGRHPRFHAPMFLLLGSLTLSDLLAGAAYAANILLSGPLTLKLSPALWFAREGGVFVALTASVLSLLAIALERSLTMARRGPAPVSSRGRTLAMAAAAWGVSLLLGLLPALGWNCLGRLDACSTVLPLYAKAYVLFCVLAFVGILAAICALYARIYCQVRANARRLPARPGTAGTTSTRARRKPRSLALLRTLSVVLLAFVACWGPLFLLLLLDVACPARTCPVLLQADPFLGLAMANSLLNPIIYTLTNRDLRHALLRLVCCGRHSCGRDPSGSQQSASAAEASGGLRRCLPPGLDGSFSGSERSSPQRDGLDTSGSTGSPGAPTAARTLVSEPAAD
PROTOCOL NOTES: Agonist activity at recombinant human S1PR5 expressed in CHO cell membranes assessed as [35S]GTP-gammaS binding measured after 1.5 hrs by TopCount scintillation counting method relative to S1P

>  <MOLECULE>
O=C(O)CCNCc1cc2cc(-c3ccc4ccccc4c3)ccc2s1

>  <UNIT OF MEASUREMENT>
%

>  <Efficacy>
78

$$$$
>  <MOLECULE>
CCc1ccccc1-c1cccc2cc(CNc3ccc(CC(=O)O)cc3)sc12

>  <UNIT OF MEASUREMENT>
%

>  <Efficacy>
20

$$$$
>  <MOLECULE>
CCc1ccccc1-c1cccc2cc(CNCCC(=O)O)sc12

>  <UNIT OF MEASUREMENT>
%

>  <Efficacy>
15

$$$$
>  <MOLECULE>
O=C(O)CNCc1cc2cc(-c3ccc4ccccc4c3)ccc2s1

>  <UNIT OF MEASUREMENT>
%

>  <Efficacy>
63

$$$$
>  <MOLECULE>
NC(CNCc1cc2c(-c3ccc4ccccc4c3)cccc2s1)C(=O)O (stereo not drawn)

>  <UNIT OF MEASUREMENT>
%

>  <Efficacy>
34

$$$$
>  <MOLECULE>
O=C(O)CCNCc1cc2cccc(-c3ccc4ccccc4c3)c2s1

>  <UNIT OF MEASUREMENT>
%

>  <Efficacy>
36

$$$$
>  <MOLECULE>
O=C(O)CCCNCc1cc2cccc(-c3cccc4ccccc34)c2s1

>  <UNIT OF MEASUREMENT>
%

>  <Efficacy>
25

$$$$
>  <MOLECULE>
Cc1ccc(-c2cccc3cc(CNCCCC(=O)O)sc23)cc1

>  <UNIT OF MEASUREMENT>
%

>  <Efficacy>
43

$$$$
>  <MOLECULE>
CCc1ccccc1-c1cccc2sc(CN3CC(C(=O)O)C3)cc12

>  <UNIT OF MEASUREMENT>
%

>  <Efficacy>
10

$$$$
>  <MOLECULE>
O=C(O)CCCNCc1cc2cccc(-c3ccc(-c4ccccc4)cc3)c2s1

>  <UNIT OF MEASUREMENT>
%

>  <Efficacy>
10

$$$$
>  <MOLECULE>
CC(CNCc1cc2cc(-c3ccc4ccccc4c3)ccc2s1)C(=O)O (stereo not drawn)

>  <UNIT OF MEASUREMENT>
%

>  <Efficacy>
77

$$$$
>  <MOLECULE>
O=C(O)c1ccc(CNCc2cc3cccc(-c4ccc5ccccc5c4)c3s2)cc1

>  <UNIT OF MEASUREMENT>
%

>  <Efficacy>
23

$$$$
>  <MOLECULE>
O=C(O)Cc1ccc(NCc2cc3cccc(-c4ccc5ccccc5c4)c3s2)cc1

>  <UNIT OF MEASUREMENT>
%

>  <Efficacy>
32

$$$$
>  <MOLECULE>
O=C(O)CCNCc1cc2c(-c3ccc4ccccc4c3)cccc2s1

>  <UNIT OF MEASUREMENT>
%

>  <Efficacy>
75

$$$$
>  <MOLECULE>
O=C(O)Cc1cccc(NCc2cc3cc(-c4ccc5ccccc5c4)ccc3s2)c1

>  <UNIT OF MEASUREMENT>
%

>  <Efficacy>
12

$$$$
>  <MOLECULE>
CCc1ccccc1-c1cccc2cc(CNc3cccc(CC(=O)O)c3)sc12

>  <UNIT OF MEASUREMENT>
%

>  <Efficacy>
36

$$$$
>  <MOLECULE>
Cc1ccccc1-c1cccc2cc(CNCCCC(=O)O)sc12

>  <UNIT OF MEASUREMENT>
%

>  <Efficacy>
7

$$$$
>  <MOLECULE>
O=C(O)CCCCNCc1cc2cc(-c3ccc4ccccc4c3)ccc2s1

>  <UNIT OF MEASUREMENT>
%

>  <Efficacy>
54

$$$$
>  <MOLECULE>
O=C(O)C1CN(Cc2cc3cccc(-c4ccc5ccccc5c4)c3s2)C1

>  <UNIT OF MEASUREMENT>
%

>  <Efficacy>
13

$$$$
>  <MOLECULE>
O=C(O)C1CN(Cc2cc3c(-c4ccc5ccccc5c4)cccc3s2)C1

>  <UNIT OF MEASUREMENT>
%

>  <Efficacy>
14

$$$$
>  <MOLECULE>
CCc1ccccc1-c1cccc2cc(CNCCCCC(=O)O)sc12

>  <UNIT OF MEASUREMENT>
%

>  <Efficacy>
16

$$$$
>  <MOLECULE>
CCc1ccccc1-c1cccc2sc(CNCc3ccc(C(=O)O)cc3)cc12

>  <UNIT OF MEASUREMENT>
%

>  <Efficacy>
11

$$$$
>  <MOLECULE>
O=C(O)CCCNCc1cc2cccc(-c3cccc(C(F)(F)F)c3)c2s1

>  <UNIT OF MEASUREMENT>
%

>  <Efficacy>
39

$$$$
